Origin of values: patent US20240217990A1

Target: TLR7 (Homo sapiens)
Construct: Human peripheral blood mononuclear cells (PBMCs) consist of lymphocytes, monocytes and dendritic cells that express TLR7, TLR8 and TLR9; endogenous in cells; host or cells: cryopreserved human PBMCs from healthy donors
Sequence (Q9NYK1 27-1049): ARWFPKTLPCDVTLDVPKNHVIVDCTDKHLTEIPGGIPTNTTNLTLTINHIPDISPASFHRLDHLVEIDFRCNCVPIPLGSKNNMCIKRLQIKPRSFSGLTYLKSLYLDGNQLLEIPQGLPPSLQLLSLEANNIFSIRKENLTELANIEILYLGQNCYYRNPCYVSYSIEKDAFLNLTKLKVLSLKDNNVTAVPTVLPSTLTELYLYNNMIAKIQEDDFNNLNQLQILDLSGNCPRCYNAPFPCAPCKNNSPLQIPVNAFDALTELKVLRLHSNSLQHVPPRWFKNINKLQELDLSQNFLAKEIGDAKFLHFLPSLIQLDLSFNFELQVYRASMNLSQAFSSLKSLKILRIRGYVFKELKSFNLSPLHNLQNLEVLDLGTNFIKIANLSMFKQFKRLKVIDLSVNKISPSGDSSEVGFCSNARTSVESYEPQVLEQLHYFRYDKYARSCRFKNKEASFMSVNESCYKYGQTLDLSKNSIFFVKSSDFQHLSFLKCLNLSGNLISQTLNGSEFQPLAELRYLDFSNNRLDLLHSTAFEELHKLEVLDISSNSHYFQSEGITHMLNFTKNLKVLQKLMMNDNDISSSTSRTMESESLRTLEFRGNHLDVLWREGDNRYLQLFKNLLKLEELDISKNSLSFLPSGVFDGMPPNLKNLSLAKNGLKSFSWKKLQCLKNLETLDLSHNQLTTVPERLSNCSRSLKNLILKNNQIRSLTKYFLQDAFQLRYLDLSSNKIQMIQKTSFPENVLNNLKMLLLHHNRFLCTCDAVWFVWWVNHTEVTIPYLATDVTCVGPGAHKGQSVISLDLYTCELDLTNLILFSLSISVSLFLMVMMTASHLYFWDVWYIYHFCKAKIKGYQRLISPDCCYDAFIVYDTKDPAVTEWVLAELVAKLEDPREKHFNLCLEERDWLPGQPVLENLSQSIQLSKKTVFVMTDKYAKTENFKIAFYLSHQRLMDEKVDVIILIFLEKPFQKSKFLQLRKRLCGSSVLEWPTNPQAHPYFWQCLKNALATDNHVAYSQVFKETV
Test: TLR7 human PBMC cell-based assay (antagonist, GS-986 stimulated cytokine release)
Conditions: human PBMCs; TLR7 agonist GS-986 400 nM, 6 hours; cytokines (IL-6 and IFNα) in supernatant; read-out: TLR-7 EC50
pEC50: −log10 of the molar value.
Reported Endpoint: pEC50

                                   compound  reported_measurement
0  CCc1c(-c2cc(C)c3ncnn3c2)[nH]c2cc(C(=O)N3CCNCC3)sc12                  8.26

A = CCc1c(-c2cc(C)c3ncnn3c2)[nH]c2cc(C(=O)N(C)C3CCNCC3)sc12
B = Cc1cc(-c2[nH]c3cc(C4CCN(CCS(C)(=O)=O)CC4)sc3c2C(C)C)cn2ncnc12
C = Cc1cc(-c2[nH]c3cc(C(=O)N(C)C4CCC(N5CC6CCC(C5)O6)CC4)sc3c2C(C)C)cn2ncnc12 (stereo not shown)
Rank the items in ascending order with respect to pEC50. The response must list the labels following the requested ordering.
C, B, A
